// reported log10 of IC50 for each item listed
# measured on: human macrophage elastase (HME/hMMP-12) (Homo sapiens)
# Construct: 0.5 nM HME
# Sequence (P39900 106-470): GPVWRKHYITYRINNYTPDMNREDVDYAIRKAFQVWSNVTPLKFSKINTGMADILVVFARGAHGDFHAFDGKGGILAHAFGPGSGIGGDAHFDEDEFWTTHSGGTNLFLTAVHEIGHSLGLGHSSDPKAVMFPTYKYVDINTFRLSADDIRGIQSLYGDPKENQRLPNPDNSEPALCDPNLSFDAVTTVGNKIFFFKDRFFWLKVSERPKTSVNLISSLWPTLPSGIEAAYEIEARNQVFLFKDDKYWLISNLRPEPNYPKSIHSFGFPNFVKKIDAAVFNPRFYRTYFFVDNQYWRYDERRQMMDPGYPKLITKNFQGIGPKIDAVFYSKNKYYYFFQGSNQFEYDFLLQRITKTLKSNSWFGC
# assay procedure: In vitro HME inhibition test (standard or high-sensitivity)
# condition details: in some cases mean values
# values: log10(IC50), units nM

compound	recorded metric	recorded measurement
Cc1ccc2nnn(C[C@H]3CC[C@@H](C(=O)c4ccc(OCCc5ccccc5)cc4)[C@@H]3C(=O)O)c(=O)c2c1 (single isomer, unassigned) [Example 114]	log10 of IC50	2.04
O=C(O)[C@@H]1[C@@H](Cn2nnc3ccc(C(F)(F)F)cc3c2=O)CC[C@H]1C(=O)c1ccc(OCc2cccc(C(F)(F)F)c2)cc1 (single isomer, unassigned) [Example 20]	log10 of IC50	0.66

// sample Cc1ccc2nnn(C[C@H]3CC[C@@H](C(=O)c4ccc(OCc5cccc(C(F)(F)F)c5)cc4)[C@@H]3C(=O)O)c(=O)c2c1 (single isomer, unassigned) [Example 102] , its log10 of IC50 was 0.94

// sample Cc1ccc2nnn(C[C@@H]3CC[C@H](C(=O)c4ccc(OCc5ccc(F)cc5)cc4)[C@H]3C(=O)O)c(=O)c2c1 (racemic) [Example 94] , its log10 of IC50 was -1.26

// sample O=C(O)[C@@H]1[C@@H](Cn2nnc3ccc(C(F)(F)F)cc3c2=O)CC[C@H]1C(=O)c1ccc(OCC2CCC2)cc1 (single isomer, unassigned) [Example 48] , its log10 of IC50 was 2.46

// sample Cc1ccc2nnn(C[C@H]3CC[C@@H](C(=O)c4ccc(OCc5cccc(OC(F)(F)F)c5)cc4)[C@@H]3C(=O)O)c(=O)c2c1 (single isomer, unassigned) [Example 110] , its log10 of IC50 was -1.06

// sample O=C(O)[C@@H]1[C@@H](Cn2nnc3ccc(C(F)(F)F)cc3c2=O)CC[C@H]1C(=O)c1ccc(SCc2cccc(Cl)c2)cc1 (single isomer, unassigned) [Example 78] , its log10 of IC50 was 0.94

// sample O=C(O)[C@H]1[C@H](Cn2nnc3ccc(C(F)(F)F)cc3c2=O)CC[C@@H]1C(=O)c1ccc(SCc2ccc(Cl)c(Cl)c2)cc1 (racemic) [Example 79] , its log10 of IC50 was -0.60

// sample O=C(O)[C@H]1[C@H](Cn2nnc3ccc(C(F)(F)F)cc3c2=O)CC[C@@H]1C(=O)c1ccc(OCc2ccccc2)cc1 (racemic) [Example 11] , its log10 of IC50 was -1.85

// sample O=C(O)[C@H]1[C@H](Cn2nnc3ccc(C(F)(F)F)cc3c2=O)CC[C@@H]1C(=O)c1ccc(OCc2cccc(N3CCOC3=O)c2)cc1 (racemic) [Example 33] , its log10 of IC50 was -0.89

// sample O=C(O)[C@@H]1[C@@H](Cn2nnc3ccc(C(F)(F)F)cc3c2=O)CC[C@H]1C(=O)c1ccc(OCC2CCCCC2)cc1 (single isomer, unassigned) [Example 42] , its log10 of IC50 was 1.59

// sample O=C(O)[C@@H]1[C@@H](Cn2nnc3ccc(C(F)(F)F)cc3c2=O)CC[C@H]1C(=O)c1ccc(OCCC2CCCCC2)cc1 (single isomer, unassigned) [Example 52] , its log10 of IC50 was -1.77

// sample O=C(O)[C@H]1[C@H](Cn2nnc3ccc(C(F)(F)F)cc3c2=O)CC[C@@H]1C(=O)c1ccc(SCCc2ccccc2)cc1 (racemic) [Example 82] , its log10 of IC50 was -0.92

// sample CC(C)CCOc1ccc(C(=O)[C@@H]2CC[C@H](Cn3nnc4ccc(C(F)(F)F)cc4c3=O)[C@H]2C(=O)O)cc1 (single isomer, unassigned) [Example 62] , its log10 of IC50 was 0.67

// sample CCCOc1ccc(C(=O)[C@@H]2CC[C@H](Cn3nnc4ccc(C(F)(F)F)cc4c3=O)[C@H]2C(=O)O)cc1 (single isomer, unassigned) [Example 71] , its log10 of IC50 was 0.43

// sample O=C(O)[C@H]1[C@H](Cn2nnc3ccccc3c2=O)CC[C@@H]1C(=O)c1ccc(OCc2cccc(Cl)c2)cc1 (racemic) [Example 2] , its log10 of IC50 was -0.29

// sample CCCCCOc1ccc(C(=O)[C@@H]2CC[C@H](Cn3nnc4ccc(C)cc4c3=O)[C@H]2C(=O)O)cc1 (single isomer, unassigned) [Example 124] , its log10 of IC50 was -1.21

// sample COC(=O)Nc1cccc(COc2ccc(C(=O)[C@@H]3CC[C@H](Cn4nnc5ccc(C(F)(F)F)cc5c4=O)[C@H]3C(=O)O)cc2)c1 (stereo in doubt) [Example 31] , its log10 of IC50 was -1.92

// sample Cc1ccc2nnn(C[C@H]3CC[C@@H](C(=O)c4ccc(OCC5CCCCC5)cc4)[C@@H]3C(=O)O)c(=O)c2c1 (single isomer, unassigned) [Example 118] , its log10 of IC50 was 2.18

// sample CCCCCCOc1ccc(C(=O)[C@@H]2CC[C@H](Cn3nnc4ccc(C(F)(F)F)cc4c3=O)[C@H]2C(=O)O)cc1 (single isomer, unassigned) [Example 59] , its log10 of IC50 was 0.62

// sample Cc1cccc(COc2ccc(C(=O)[C@@H]3CC[C@H](Cn4nnc5ccc(C(F)(F)F)cc5c4=O)[C@H]3C(=O)O)cc2)c1 (single isomer, unassigned) [Example 16] , its log10 of IC50 was -1.19

// sample O=C(O)[C@H]1[C@H](Cn2nnc3ccc(C(F)(F)F)cc3c2=O)CC[C@@H]1C(=O)c1ccc(OCc2cccc(C(F)(F)F)c2)cc1 (racemic) [Example 18] , its log10 of IC50 was -0.96

----------
# measured on: UniProt:P45452
Sorting guide: entries reporting IC50 beneath 400 nM go in the yes pile, the rest go in the no pile.

Example results:
compound	discrete label
O=C(O)[C@H]1[C@H](Cn2nnc3ccc(C(F)(F)F)cc3c2=O)CC[C@@H]1C(=O)c1ccc(OCC2CCCCC2)cc1 (racemic) [Example 40]	yes
CCCCCOc1ccc(C(=O)[C@H]2CC[C@@H](Cn3nnc4ccc(C)cc4c3=O)[C@@H]2C(=O)O)cc1 (racemic) [Example 123]	yes
Cc1ccc2nnn(C[C@H]3CC[C@@H](C(=O)c4ccc(OCc5cccc(OC(F)(F)F)c5)cc4)[C@@H]3C(=O)O)c(=O)c2c1 (single isomer, unassigned) [Example 110]	yes
O=C(O)[C@H]1[C@H](Cn2nnc3ccc(C(F)(F)F)cc3c2=O)CC[C@@H]1C(=O)c1ccc(OCCCC2CCCCC2)cc1 (racemic) [Example 56]	no
O=C(O)[C@@H]1[C@@H](Cn2nnc3ccc(C(F)(F)F)cc3c2=O)CC[C@H]1C(=O)c1ccc(SCc2ccc(Cl)c(Cl)c2)cc1 (single isomer, unassigned) [Example 80]	no
O=C(O)[C@@H]1[C@@H](Cn2nnc3ccc(C(F)(F)F)cc3c2=O)CC[C@H]1C(=O)c1ccc(OCc2cccc(Cl)c2)cc1 (single isomer, unassigned) [Example 23]	no

Prompt: In plain terms, does O=C(O)[C@@H]1[C@@H](Cn2nnc3ccc(C(F)(F)F)cc3c2=O)CC[C@H]1C(=O)c1ccc(OCc2cccc(N3CCOC3=O)c2)cc1 (single isomer, unassigned) [Example 35] come in under 400 nM for IC50?
Response: yes

Prompt: In plain terms, does CCCCOc1ccc(C(=O)[C@@H]2CC[C@H](Cn3nnc4ccc(C(F)(F)F)cc4c3=O)[C@H]2C(=O)O)cc1 (single isomer, unassigned) [Example 67] come in under 400 nM for IC50?
Response: yes

----------
Entries with reported pIC50 on mouse MMP-8 (Mus musculus)
Sequence (O70138 101-465): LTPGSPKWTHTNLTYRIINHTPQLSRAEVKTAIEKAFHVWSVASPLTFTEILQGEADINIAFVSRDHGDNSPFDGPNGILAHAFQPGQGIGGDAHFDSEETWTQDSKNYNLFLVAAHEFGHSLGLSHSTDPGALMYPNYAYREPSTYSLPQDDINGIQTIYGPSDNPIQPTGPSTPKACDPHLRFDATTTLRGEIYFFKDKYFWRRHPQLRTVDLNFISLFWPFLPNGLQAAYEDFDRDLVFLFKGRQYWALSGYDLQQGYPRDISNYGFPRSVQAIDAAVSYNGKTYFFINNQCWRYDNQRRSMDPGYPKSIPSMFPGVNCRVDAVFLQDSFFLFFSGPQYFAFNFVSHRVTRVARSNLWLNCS
Give only the number. pIC50 is defined as minus log10 of concentration in molar units.

Solved cases (4 shown):
compound	pIC50
Cc1ccc2nnn(C[C@@H]3CC[C@H](C(=O)c4ccc(OCc5cccc(OC(F)(F)F)c5)cc4)[C@H]3C(=O)O)c(=O)c2c1 (racemic)	6.35
O=C(O)[C@@H]1[C@@H](Cn2nnc3ccc(C(F)(F)F)cc3c2=O)CC[C@H]1C(=O)c1ccc(OCc2cccc(Cl)c2)cc1 (single isomer, unassigned)	6.52
O=C(O)[C@H]1[C@H](Cn2nnc3ccccc3c2=O)CC[C@@H]1C(=O)c1ccc(OCc2ccc(Cl)c(Cl)c2)cc1 (racemic)	6.09
Cc1ccc2nnn(C[C@@H]3CC[C@H](C(=O)c4ccc(OCc5ccccc5)cc4)[C@H]3C(=O)O)c(=O)c2c1 (racemic)	7.59

// sample O=C(O)[C@H]1[C@H](Cn2nnc3ccc(C(F)(F)F)cc3c2=O)CC[C@@H]1C(=O)c1ccc(OCc2ccccc2)cc1 (racemic) , its pIC50 was 7.74

// sample O=C(O)[C@H]1[C@H](Cn2nnc3ccc(C(F)(F)F)cc3c2=O)CC[C@@H]1C(=O)c1ccc(OCCCc2ccccc2)cc1 (racemic) , its pIC50 was 6.19

----------
# measured on: MMP-10 (Homo sapiens)
# Sequence (P09238 99-476): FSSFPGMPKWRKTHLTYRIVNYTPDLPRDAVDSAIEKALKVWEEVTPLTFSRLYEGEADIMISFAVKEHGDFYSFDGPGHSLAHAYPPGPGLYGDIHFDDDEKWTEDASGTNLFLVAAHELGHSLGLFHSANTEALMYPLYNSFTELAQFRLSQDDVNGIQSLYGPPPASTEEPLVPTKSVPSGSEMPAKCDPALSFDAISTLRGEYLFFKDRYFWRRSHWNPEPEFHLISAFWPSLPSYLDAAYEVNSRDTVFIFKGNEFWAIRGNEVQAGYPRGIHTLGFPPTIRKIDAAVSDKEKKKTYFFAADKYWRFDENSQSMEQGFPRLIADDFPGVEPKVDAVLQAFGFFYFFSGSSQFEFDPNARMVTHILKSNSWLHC
recorded metric: pIC50
Give only the number. pIC50 is defined as minus log10 of concentration in molar units.

Solved cases (2 shown):
compound	pIC50
O=C(O)[C@H]1[C@H](Cn2nnc3ccccc3c2=O)CC[C@@H]1C(=O)c1ccc(OCc2ccc(Cl)c(Cl)c2)cc1 (racemic)	6.37
CCCCCCOc1ccc(C(=O)[C@@H]2CC[C@H](Cn3nnc4ccc(C(F)(F)F)cc4c3=O)[C@H]2C(=O)O)cc1 (single isomer, unassigned)	7.54

Now look at this one.
Field pIC50 (MMP-10 (Homo sapiens)), entry Cc1ccc2nnn(C[C@H]3CC[C@@H](C(=O)c4ccc(OCC5CCCCC5)cc4)[C@@H]3C(=O)O)c(=O)c2c1 (single isomer, unassigned) : 7.59
